# SYSTEM TESTED: Prostaglandin D2 receptor 2 (Mus musculus)
# Sequence (Q9Z2J6 whole entry): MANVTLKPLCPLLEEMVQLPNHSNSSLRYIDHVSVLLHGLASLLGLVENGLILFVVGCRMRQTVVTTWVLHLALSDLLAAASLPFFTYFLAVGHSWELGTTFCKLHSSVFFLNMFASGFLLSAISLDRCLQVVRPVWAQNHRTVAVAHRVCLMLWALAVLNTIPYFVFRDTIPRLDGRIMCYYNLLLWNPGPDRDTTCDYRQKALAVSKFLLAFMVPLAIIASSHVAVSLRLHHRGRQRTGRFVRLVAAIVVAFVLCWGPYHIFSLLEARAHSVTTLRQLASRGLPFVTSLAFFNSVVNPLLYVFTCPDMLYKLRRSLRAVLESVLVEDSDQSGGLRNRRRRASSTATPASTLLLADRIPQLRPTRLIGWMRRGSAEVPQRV
# TEST: Radioligand Binding Assay and [35S] GTP-gamma-S Binding Assay
pKi: −log10 of the molar value.
READOUT NAME: pKi

# SMILES STRUCTURE, READOUT NAME, RECORDED VALUE
records = [
    ("O=C(O)CN1C(=O)[C@@]2(CC(=O)N(Cc3cc(Cl)ccc3F)C2)c2cc(Cl)ccc21", "pKi", 7.06),
]

---

# SYSTEM TESTED: Prostaglandin D2 receptor 2 (Homo sapiens)
# Sequence (Q9Y5Y4 whole entry): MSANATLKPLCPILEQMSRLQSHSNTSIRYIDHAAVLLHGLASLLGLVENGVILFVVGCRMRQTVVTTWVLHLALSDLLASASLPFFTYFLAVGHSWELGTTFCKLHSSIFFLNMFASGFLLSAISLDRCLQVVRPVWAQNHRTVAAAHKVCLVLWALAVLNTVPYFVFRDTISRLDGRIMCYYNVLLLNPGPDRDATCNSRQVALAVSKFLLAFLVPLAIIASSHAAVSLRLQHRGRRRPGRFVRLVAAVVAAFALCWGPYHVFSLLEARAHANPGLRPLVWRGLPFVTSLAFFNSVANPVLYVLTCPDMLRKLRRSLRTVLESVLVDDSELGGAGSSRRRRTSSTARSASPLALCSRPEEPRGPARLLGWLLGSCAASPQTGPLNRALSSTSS
# TEST: Radioligand Binding Assay
pEC50: −log10 of the molar value.
Documented pEC50 across a set of compounds

# COMPOUND, pEC50
rows = [
    ("O=C(O)CN1C(=O)C2(CC(=O)N(Cc3csc(-c4cccc(Cl)c4)n3)C2=O)c2cc(Cl)ccc21 (stereo not given)", 7.32),
    ("O=C(O)CN1C(=O)[C@@]2(CC(=O)N(Cc3cc(Cl)ccc3F)C2=O)c2cc(Cl)ccc21", 7.18),
    ("Cc1noc(-c2ccccc2)c1CN1C(=O)CC2(C1=O)C(=O)N(CC(=O)O)c1ccc(Cl)cc12 (stereo not given)", 7.64),
    ("O=C(O)CN1C(=O)C2(CC(=O)N(Cc3cc(Cl)cc(Cl)c3)C2=O)c2cc(Cl)ccc21 (stereo not given)", 7.09),
    ("O=C(O)CN1C(=O)C2(CC(=O)N(Cc3cc(Cl)ccc3F)C2=O)c2cc(Cl)ccc21 (stereo not given)", 7.32),
]

---

# SYSTEM TESTED: Prostaglandin D2 receptor 2 (Homo sapiens)
# TEST: Radioligand Binding Assay
pEC50: −log10 of the molar value.
Documented pEC50 across a set of compounds
READOUT NAME: pEC50

# COMPOUND, RECORDED VALUE
records = [
    ("Cc1nc(CN2C(=O)CC3(C2=O)C(=O)N(CC(=O)O)c2ccc(Cl)cc23)cs1 (stereo not given)", 6.63),
    ("Cc1noc(C)c1CN1C(=O)CC2(C1=O)C(=O)N(CC(=O)O)c1ccc(Cl)cc12 (stereo not given)", 6.66),
    ("Cc1onc(-c2ccccc2)c1CN1C(=O)CC2(C1=O)C(=O)N(CC(=O)O)c1ccc(Cl)cc12 (stereo not given)", 7.68),
    ("O=C(O)CN1C(=O)[C@@]2(CC(=O)N(Cc3cccc(Cl)c3)C2=O)c2cc(Cl)ccc21", 6.97),
    ("Cc1noc(-c2ccccc2)c1CN1CC2(CC1=O)C(=O)N(CC(=O)O)c1ccc(Cl)cc12 (stereo not given)", 7.72),
]
